measured-on: Cyclin-dependent kinase 2/cyclin E1 (Homo sapiens, UniProt P24941)
assay-protocol: Inhibition of CDK2/cyclin E
Assay type: protein-complex assay
measured-parameter: IC50 (µM)
# value in µM; strip the unit string

What does the data say about its IC50? Entry: `Cc1ccc(-c2nn(-c3ccccc3)cc2CNc2ccc(Br)cc2)cc1`
4.15

What does the data say about its IC50? Entry: `Cc1ccc(-c2nn(-c3ccccc3)cc2CNc2ccc(Cl)cc2)cc1`
3.89

What does the data say about its IC50? Entry: `COc1ccc(-c2nn(-c3ccccc3)cc2CNc2ccc(C)cc2)cc1`
5.06

What does the data say about its IC50? Entry: `COc1ccc(-c2nn(-c3ccccc3)cc2CNc2ccc(Cl)cc2)cc1`
4.28

What does the data say about its IC50? Entry: `COc1ccc(-c2nn(-c3ccccc3)cc2CNc2ccc(F)cc2)cc1`
4.02

What does the data say about its IC50? Entry: `Clc1ccc(NCc2cn(-c3ccccc3)nc2-c2ccc(Br)cc2)cc1`
2.56

What does the data say about its IC50? Entry: `COc1ccc(-c2nn(-c3ccccc3)cc2CNc2ccc(Br)cc2)cc1`
4.96

What does the data say about its IC50? Entry: `Clc1ccc(-c2nn(-c3ccccc3)cc2CNc2ccc(Br)cc2)cc1`
1.85

What does the data say about its IC50? Entry: `Cc1ccc(-c2nn(-c3ccccc3)cc2CNc2ccc(F)cc2)cc1`
3.6

What does the data say about its IC50? Entry: `Fc1ccc(NCc2cn(-c3ccccc3)nc2-c2ccc(Cl)cc2)cc1`
0.98

What does the data say about its IC50? Entry: `Fc1ccc(NCc2cn(-c3ccccc3)nc2-c2ccc(Br)cc2)cc1`
2.36

What does the data say about its IC50? Entry: `Clc1ccc(NCc2cn(-c3ccccc3)nc2-c2ccc(Cl)cc2)cc1`
1.18

What does the data say about its IC50? Entry: `Cc1ccc(NCc2cn(-c3ccccc3)nc2-c2ccc(Br)cc2)cc1`
3.02

What does the data say about its IC50? Entry: `Brc1ccc(NCc2cn(-c3ccccc3)nc2-c2ccc(Br)cc2)cc1`
2.78

What does the data say about its IC50? Entry: `Cc1ccc(NCc2cn(-c3ccccc3)nc2-c2ccc(C)cc2)cc1`
4.55

What does the data say about its IC50? Entry: `Cc1ccc(NCc2cn(-c3ccccc3)nc2-c2ccc(Cl)cc2)cc1`
2.08
